# TARGET_SYSTEM: T1, human MUC16 (mucin 16) (human)
# T1 construct: Endogenously expressed on human tumour cell lines; also called hMUC16
# EXPERIMENT_SUMMARY: MSD ECL cell binding, RLU ratio OVCAR-3 vs SK-OV-3, 16.7 nM Ab
PARAMETER: Ratio anti-MUC16 Binding OVCAR-3/SK-OV-3 (ratio)
Please state the figure in ratio; there is no need to write the unit.

Some solved entries appear below for comparison.
>  <BINDER>
H1H9529N (antibody, human IgG1, V domains shown, Human IgG1 form of H3M9529N) VH: QVQLQQWGAGLLKPSETLSLTCAVYGGSFSGFYWSWIRQPPGKGLEWIGEINHSGSAKYNPSLKNRVIISIDTSKNQFSLKLDSVTAADTAVYNCARQGWNFAIFDYWGQGTLVDVSS VL: DIVMTQSPDSLAVSLGGRATINCKSSQSVLHSSYNKDHLAWYQQRPGQPPKLLIYWASTRESGVPDRFSGSGSGTDFTLTISSLQAEDVAVYYCQQYNILPPTFGQGTRVEIK

>  <Ratio anti-MUC16 Binding OVCAR-3/SK-OV-3, ratio>
74

$$$$
>  <BINDER>
H1H8755P (antibody, human IgG1, V domains shown, Human IgG1 (H1H: hIgG1)) VH: EVQLVESGGGLVQPGRSLRLSCAASGFTFNDYAMHWVRQSPGKGLEWVSGIDWNGGSIDYADSVKGRFTISRDTAKNSLYLQMNSLKVEDTALYYCAKDIGHWNYIGGMDVWGQGTTVTVSS VL: DIQMTQSPSSLSASVGDRVTITCRASQSINIYLNWYQQKPGKAPKFLIYAASSLQTGVPSRFSGSGSGTDFTLTISSLEPEDFATYYCQHSYSTPPITFGQGTRLEIK

>  <Ratio anti-MUC16 Binding OVCAR-3/SK-OV-3, ratio>
5

$$$$
>  <BINDER>
H1H8770P (antibody, human IgG1, V domains shown, Human IgG1) VH: QVQLVESGGGVVQPGRSLRLSCAASGFTFSDHGMHWVRQAPGKGLEWVAVISYHGSNKHYADSVKGRFTISRDNSKNALYLQMNSLRPEDTAMYYCAKDGYDFWNGYSLFDYWGQGTLVTVSS VL: DIQMTQSPSSLSASVGDRVTITCRASQSISNYLNWYQQKPGKAPKLLIYTASNLLSGVPSRFSGSGSGTDFTLTISSLQPEDFATYYCQQSYSTPPITFGQGTKLEIK

>  <Ratio anti-MUC16 Binding OVCAR-3/SK-OV-3, ratio>
3

$$$$
>  <BINDER>
H1H9528N (antibody, human IgG1, V domains shown, Human IgG1 form of H1M9528N) VH: QMQLQESGPGLVKPSETLSLTCTVSGGSISSYYWNWIRQPPGKGLEWIGYIYYSGNNFNPSLKSRVTISVDTSKNQFSLKLSSVTAADTAVYYCARAFHWNYEFDYWGQGTLVTVSS VL: EIVLTQSPGTLSLSPGERATLSCRASQSVSNNYLAWYQQKPGQAPRLLLYGASSRTTDIPDRFSGSGSGTDFTLTISRLEPEDFAVYYCQQYDNSPLTFGGGTKVEIR

>  <Ratio anti-MUC16 Binding OVCAR-3/SK-OV-3, ratio>
18

$$$$

API: the following record is the query input.
Summary for this binder, H3M9529N (antibody, mouse IgG3, V domains shown, Human variable regions, mouse IgG3 constant region) VH: QVQLQQWGAGLLKPSETLSLTCAVYGGSFSGFYWSWIRQPPGKGLEWIGEINHSGSAKYNPSLKNRVIISIDTSKNQFSLKLDSVTAADTAVYNCARQGWNFAIFDYWGQGTLVDVSS VL: DIVMTQSPDSLAVSLGGRATINCKSSQSVLHSSYNKDHLAWYQQRPGQPPKLLIYWASTRESGVPDRFSGSGSGTDFTLTISSLQAEDVAVYYCQQYNILPPTFGQGTRVEIK : Ratio anti-MUC16 Binding OVCAR-3/SK-OV-3 is 99

The reported numbers originate from patent US20180118848A1.
